// provenance: PubChem BioAssay (Tox21)

Experiment: p53 small molecule agonists, cell-based qHTS assay with rat liver microsomes: qHTS cell viability counter screen (AID 1963580); note: nearly all actives have a fitted effect of over 45% in size
Details: p53RE-bla HCT-116 + rat microsomes, ATP viability, 16 h; series mostly up to 66 µM
Description: National Center for Advancing Translational Sciences [NCATS] Division of Preclinical Innovation [DPI] U.S. Environmental Protection Agency [EPA] National Institutes of Environmental Health Sciences [NIEHS] National Toxicology Program [NTP] U.S. Food and Drug Administration [FDA] p53, a tumor suppressor protein, is activated following cellular insult, including DNA damage and other cellular stresses. […] The activation of the reporter gene under culture conditions can be detected by fluorescence intensity. […]
Inconclusive results are not listed. Calls of active or inactive are those of the source. Calls come from the whole dose curve.
Answer with one of the outcomes given here: TRUE (active), FALSE (inactive)

O=S(=O)(O)c1ccc2nc(-c3ccccc3)[nH]c2c1 : TRUE
CC(=O)Nc1ccc(C(=O)O)cc1 : FALSE
O=C(O)c1ccc2c(c1)C(=O)OC2=O : FALSE
CNC[C@H](O)c1ccc(O)c(O)c1 : FALSE
NC1CCCCC1 : FALSE

Per the assay record, what outcome was assigned to C1CNCCN1 ?
FALSE

Status in this test for c1ccc2ccccc2c1 ?
FALSE

What call does the record list for O=C(CC(C(=O)OC1CCCCC1)S(=O)(=O)O)OC1CCCCC1 (configuration not stated) ?
FALSE

Please state the recorded outcome for this compound: CC(=O)N[C@@H](CS)C(=O)O
FALSE
